This collection of values is drawn from patent US11873298B2.

ASSAYED_TARGET: SCD5 (Homo sapiens)
Construct: host or cells: S. cerevisiae ole1Δ strain (W303 pdr1Δ pdr3Δ background), plasmid pRS316 with TDH3 promoter and CYC1 terminator
TEST_DETAILS: Growth inhibition of humanized yeast strain expressing SCD5 as sole desaturase
Format: cell-based
EXPERIMENTAL_CONDITIONS: humanized yeast strain expressing SCD5
pIC50: −log10 of the molar value.
# reported pIC50; entries follow

Completed entries (count: 4):
>>> print(df.to_string())
                                   compound       assayed_target  recorded_result
0  CC(C)n1ncc2ccc(-c3noc(C4CCN(C(=O)CNC(=O)c5ccccc5)CC4)n3)cc21 [Compound 171]  SCD5 (Homo sapiens)           < 4.35
1  CC(C)n1ncc2ccc(-c3noc([C@H]4CC[C@@H](N)CC4)n3)cc21 [Compound 536]  SCD5 (Homo sapiens)           < 4.35
2  COc1ccc(-c2noc(C3CCN(C(=O)/C=C/C(=O)c4ccccc4)CC3)n2)cc1OC [Compound 33]  SCD5 (Homo sapiens)           < 4.35
3  Cc1nn(C)c2cc(-c3noc(C4CCN(C(=O)CNC(=O)c5cccc(Cl)c5)CC4(F)F)n3)ccc12 (stereo not drawn) [Compound 603]  SCD5 (Homo sapiens)             5.62

Any idea what pIC50 came out for CC(C)n1ncc2ccc(-c3noc([C@H]4CC[C@H](N)CC4)n3)cc21 [Compound 596] on SCD5 (Homo sapiens)?
< 4.35

Lab note: need pIC50 with SCD5 (Homo sapiens) for entry CC(C)n1ncc2ccc(-c3noc(C4CCN(C(=O)c5cscn5)CC4)n3)cc21 [Compound 573] , please look it up.
5.25

###

ASSAYED_TARGET: SCD1 (Homo sapiens, UniProt O00767)
Construct: host or cells: S. cerevisiae ole1Δ strain (W303 pdr1Δ pdr3Δ background), plasmid pRS316 with TDH3 promoter and CYC1 terminator
TEST_DETAILS: Growth inhibition of humanized yeast strain expressing SCD1 as sole desaturase
Assay type: cell-based
EXPERIMENTAL_CONDITIONS: humanized yeast strain, 40 h
MEASUREMENT_TYPE: IC50

Known results for molecules:
>>> df
                                   molecule  recorded_result
0  O=C(C1CCC1)N1CCC(c2noc(-c3cc(F)c4cnn(C5COC5)c4c3)n2)CC1          > 45 µM
1  CC(C)(C)OC(=O)N1C[C@@H]2[C@H](C1)[C@H]2C(=O)NCc1ccncc1          > 45 µM
2  CC(C)C(=O)N1CCC(c2nc(-c3ccnc(F)c3)no2)CC1          > 45 µM
3  CC(C)n1nc(CO)c2ccc(-c3noc(C4CCN(C(=O)OC(C)(C)C)CC4)n3)cc21          > 45 µM
4  O=C(c1ncccc1F)N1CCC(c2noc(-c3ccc4cnn(C5COC5)c4c3)n2)CC1          > 45 µM

Entry CC(C)n1ncc2ccc(-c3nc(C4CCN(C(=O)CC5CC5)CC4)no3)cc21 , system SCD1 (Homo sapiens, UniProt O00767): what IC50 was measured?
> 45 µM

Notebook entry, SCD1 (Homo sapiens, UniProt O00767) assay: IC50 of O=C(N1CCC(c2noc(-c3ccnc(NC4COC4)c3)n2)CC1)C1(F)CC1 = ?
> 45 µM

Reported IC50 for SCD1 (Homo sapiens, UniProt O00767), given CCC(=O)N1CCC(c2noc(-c3ccc4cnn([C@@H]5CCOC5)c4c3)n2)CC1 ?
> 45 µM

Enter reported IC50 observed with SCD1 (Homo sapiens, UniProt O00767) for CC1(OC(=O)N2CCC(c3noc(-c4ccnc(N5CCC(F)(F)C5)c4)n3)CC2)CC1
1.14 µM

Query the reported IC50 for SCD1 (Homo sapiens, UniProt O00767); item: CC(C)(C)OC(=O)N1C[C@@H]2[C@H](C1)[C@H]2NC(=O)c1ccc2cnn(C3COC3)c2c1
> 45 µM

###

Overview of reported IC50 across a group of compounds:
ASSAYED_TARGET: SCD1 (Homo sapiens)
Construct: host or cells: S. cerevisiae ole1Δ strain (W303 pdr1Δ pdr3Δ background), plasmid pRS316 with TDH3 promoter and CYC1 terminator
Sequence (O00767 1-359): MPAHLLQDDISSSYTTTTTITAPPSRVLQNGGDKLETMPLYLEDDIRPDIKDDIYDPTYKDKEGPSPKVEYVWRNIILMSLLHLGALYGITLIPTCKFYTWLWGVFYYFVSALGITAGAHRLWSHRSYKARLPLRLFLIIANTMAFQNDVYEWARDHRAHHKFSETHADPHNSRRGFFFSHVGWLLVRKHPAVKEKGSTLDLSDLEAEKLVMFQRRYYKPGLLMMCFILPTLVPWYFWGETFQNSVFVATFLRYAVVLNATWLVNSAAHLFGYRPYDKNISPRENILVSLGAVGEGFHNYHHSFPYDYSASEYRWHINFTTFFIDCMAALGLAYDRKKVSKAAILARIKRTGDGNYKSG
TEST_DETAILS: Growth inhibition of humanized yeast strain expressing SCD1 as sole desaturase
Type: cell-based
EXPERIMENTAL_CONDITIONS: humanized yeast strain, 40 h

In [3]: df
Out[3]:
                                   compound  measurement_type  recorded_result
0  CC(C)(C)OC(=O)N1CCC(c2nc(-c3ccccc3)no2)CC1 [Compound 808]              IC50          > 45 µM
1  CC(C)(C)OC(=O)N1CCN(c2noc(-c3ccnc(Cl)c3)n2)CC1 [Compound 754]              IC50          > 45 µM

Quick one: IC50 of CC(C)(C)OC(=O)N1CCC(c2nc(-c3ccc4cnn([C@@H]5CCOC5)c4c3)no2)CC1 [Compound 792] ?
8.83 µM

Please give the measured IC50 for this compound: CC(C)(C)OC(=O)N1CCN(c2nc(-c3ccc4cnn(C5CCOC5)c4c3)no2)CC1 (centres unmarked) [Compound 784]
0.95 µM

# IC50 lookup, item CC(C)C(=O)N1CC[C@@H](c2noc(-c3ccc4cnn(C5COC5)c4c3)n2)C[C@@H]1C [Compound 1055]
> 45 µM

Recorded IC50 for COC(=O)N1CCC(c2nnc(-c3ccc4cnn(C5COC5)c4c3)o2)CC1 [Compound 871] , please?
> 45 µM

Need IC50, item CC1(C(=O)N2CCN(c3nc(-c4ccc5cnn(C6COC6)c5c4)no3)CC2)CCOC1 (centres unmarked) [Compound 924]
> 45 µM

Which IC50 is reported for this compound? O=C(C1CC2(CC2)C1)N1CCN(c2nnc(-c3ccc4cnn(C5COC5)c4c3)o2)CC1 [Compound 993]
> 45 µM

###

ASSAYED_TARGET: SCD5 (Homo sapiens)
Construct: host or cells: S. cerevisiae ole1Δ strain (W303 pdr1Δ pdr3Δ background), plasmid pRS316 with TDH3 promoter and CYC1 terminator
Sequence (Q86SK9 1-330): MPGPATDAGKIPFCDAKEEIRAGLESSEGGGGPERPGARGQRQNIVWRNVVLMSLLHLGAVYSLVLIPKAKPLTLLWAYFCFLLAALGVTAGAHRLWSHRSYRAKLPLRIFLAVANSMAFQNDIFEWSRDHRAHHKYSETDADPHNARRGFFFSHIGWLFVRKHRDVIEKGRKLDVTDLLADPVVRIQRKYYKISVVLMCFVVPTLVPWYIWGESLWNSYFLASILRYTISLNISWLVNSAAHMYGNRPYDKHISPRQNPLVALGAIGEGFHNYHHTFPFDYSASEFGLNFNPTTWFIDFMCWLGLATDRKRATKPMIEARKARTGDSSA
TEST_DETAILS: Growth inhibition of humanized yeast strain expressing SCD5 as sole desaturase
Type: cell-based
EXPERIMENTAL_CONDITIONS: humanized yeast strain, 40 h
Listed here: items and their measured log10 of IC50.
Quick note: numbers are log10 of IC50, with nM as the unit.

Solved entries:
In [3]: df
Out[3]:
                                   molecule  recorded_result
0  Cn1cc(-c2cc(-c3nc(C4CCN(C(=O)OC5(C)CC5)CC4)no3)ccn2)cn1             3.78
1  CC1(OC(=O)N2CCC(c3nnc(-c4ccc5cnn(C6CCOC6)c5c4)o3)CC2)CC1 (centres unmarked)             1.68
2  CC(C)(C)OC(=O)N1CCC(c2nc(-c3ccccc3)no2)CC1             3.76
3  CN(c1cc(-c2nc(C3CCN(C(=O)C4CC4)CC3)no2)ccn1)C1COC1             2.72
4  CC(C)(C)OC(=O)N1CCC(c2noc(-c3cncc(N4CCC(F)(F)C4)c3)n2)CC1             2.67
5  CC(C)c1ncn2ccc(-c3noc(C4CCN(C(=O)OC(C)(C)C)CC4)n3)cc12             3.66
6  O=C(C1CCC1)N1CCC(c2noc(-c3cccc(N4CCOCC4)n3)n2)CC1             4.37
7  COC(=O)N1CCC(c2noc(-c3ccc4cnn(C5CCC(F)(F)C5)c4c3)n2)CC1 (centres unmarked)             1.52

Next up:
Look up log10 of IC50: CC(C)n1ncc2cnc(-c3cc(C4CCN(C(=O)OC(C)(C)C)CC4)on3)cc21
1.00
